Assignment: determine reported IC50 for the given compounds.
Molecular target: human CRFR1 (Homo sapiens (Human))
Sequence (P34998 24-415): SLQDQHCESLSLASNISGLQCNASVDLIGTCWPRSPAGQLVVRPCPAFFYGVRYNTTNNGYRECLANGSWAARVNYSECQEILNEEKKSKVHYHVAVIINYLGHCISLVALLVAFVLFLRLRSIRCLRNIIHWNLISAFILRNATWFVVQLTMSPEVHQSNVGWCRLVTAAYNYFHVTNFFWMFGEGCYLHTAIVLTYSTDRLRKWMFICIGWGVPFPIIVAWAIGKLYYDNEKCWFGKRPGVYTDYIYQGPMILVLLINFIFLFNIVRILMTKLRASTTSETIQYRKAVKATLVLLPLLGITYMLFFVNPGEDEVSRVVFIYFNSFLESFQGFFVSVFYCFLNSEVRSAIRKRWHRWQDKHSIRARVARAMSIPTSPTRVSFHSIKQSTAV
Test: CRFR1 Binding Test;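 note: nonspecific binding was determined with a 4,000-fold excess of unlabelled sauvagine and subtracted from every reading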
Conditions: competition with 100 pM 125I-CRF, SPA method, membrane fraction of human CRFR1-expressing HEK293 cells; read-out: CRF1 receptor binding capacity IC50

Would you please look over these solved cases?
- COMPOUND: "CCOc1nn2c(-c3c(OC)cc(COC)cc3OC)csc2c1N(CC1CCC1)C1CCOCC1 [Example 83]"
  IC50: "47 nM"
- COMPOUND: "CCCN(CCCOC)c1c(OC)nn2c(-c3c(OC)cc(COC)cc3OC)csc12 [Example 39]"
  IC50: "57 nM"
- COMPOUND: "COc1cc(C(C)OC)cc(OC)c1-c1csc2c(N(CC3CC3)CC3CCOC3)c(OC)nn12 (stereo not shown) [Example 19]"
  IC50: "52 nM"

We next turn to a different compound, shown below.
Item under review: COCc1cc(OC)c(-c2c(C)sc3c(N(CC4CC4)CC4CCOC4)c(OC)nn23)c(OC)c1 (stereo not shown) [Example 8] . Reported IC50?
51 nM
